Each entry below carries its reported EC50.
# target.entity: Voltage-gated potassium channel, KQT; KCNQ2(Kv7.2)/KCNQ3(Kv7.3) (Homo sapiens, UniProt O43525+O43526)
# Sequence (O43526 whole entry): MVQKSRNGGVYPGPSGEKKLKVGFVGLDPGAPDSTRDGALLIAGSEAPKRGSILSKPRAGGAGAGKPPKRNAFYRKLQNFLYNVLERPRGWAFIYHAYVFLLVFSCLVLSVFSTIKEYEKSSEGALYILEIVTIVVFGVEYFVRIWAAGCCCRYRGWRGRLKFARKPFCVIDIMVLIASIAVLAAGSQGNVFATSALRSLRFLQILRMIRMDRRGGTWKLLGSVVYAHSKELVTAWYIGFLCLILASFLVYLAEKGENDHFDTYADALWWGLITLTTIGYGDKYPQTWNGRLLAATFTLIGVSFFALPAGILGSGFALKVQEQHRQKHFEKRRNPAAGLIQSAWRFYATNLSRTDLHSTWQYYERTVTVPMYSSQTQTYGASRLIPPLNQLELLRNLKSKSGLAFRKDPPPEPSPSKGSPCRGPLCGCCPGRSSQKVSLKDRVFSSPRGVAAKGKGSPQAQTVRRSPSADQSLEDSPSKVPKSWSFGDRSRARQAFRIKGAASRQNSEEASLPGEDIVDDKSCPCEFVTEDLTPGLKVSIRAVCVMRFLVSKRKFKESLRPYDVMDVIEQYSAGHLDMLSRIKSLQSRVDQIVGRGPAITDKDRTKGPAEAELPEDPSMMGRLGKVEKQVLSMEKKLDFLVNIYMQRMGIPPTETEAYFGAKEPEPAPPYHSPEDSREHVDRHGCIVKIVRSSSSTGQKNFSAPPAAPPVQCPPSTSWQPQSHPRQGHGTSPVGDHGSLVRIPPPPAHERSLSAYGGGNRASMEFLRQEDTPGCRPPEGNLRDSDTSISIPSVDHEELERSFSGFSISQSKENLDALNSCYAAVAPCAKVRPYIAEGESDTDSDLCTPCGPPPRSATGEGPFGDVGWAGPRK
# Sequence (O43525 whole entry): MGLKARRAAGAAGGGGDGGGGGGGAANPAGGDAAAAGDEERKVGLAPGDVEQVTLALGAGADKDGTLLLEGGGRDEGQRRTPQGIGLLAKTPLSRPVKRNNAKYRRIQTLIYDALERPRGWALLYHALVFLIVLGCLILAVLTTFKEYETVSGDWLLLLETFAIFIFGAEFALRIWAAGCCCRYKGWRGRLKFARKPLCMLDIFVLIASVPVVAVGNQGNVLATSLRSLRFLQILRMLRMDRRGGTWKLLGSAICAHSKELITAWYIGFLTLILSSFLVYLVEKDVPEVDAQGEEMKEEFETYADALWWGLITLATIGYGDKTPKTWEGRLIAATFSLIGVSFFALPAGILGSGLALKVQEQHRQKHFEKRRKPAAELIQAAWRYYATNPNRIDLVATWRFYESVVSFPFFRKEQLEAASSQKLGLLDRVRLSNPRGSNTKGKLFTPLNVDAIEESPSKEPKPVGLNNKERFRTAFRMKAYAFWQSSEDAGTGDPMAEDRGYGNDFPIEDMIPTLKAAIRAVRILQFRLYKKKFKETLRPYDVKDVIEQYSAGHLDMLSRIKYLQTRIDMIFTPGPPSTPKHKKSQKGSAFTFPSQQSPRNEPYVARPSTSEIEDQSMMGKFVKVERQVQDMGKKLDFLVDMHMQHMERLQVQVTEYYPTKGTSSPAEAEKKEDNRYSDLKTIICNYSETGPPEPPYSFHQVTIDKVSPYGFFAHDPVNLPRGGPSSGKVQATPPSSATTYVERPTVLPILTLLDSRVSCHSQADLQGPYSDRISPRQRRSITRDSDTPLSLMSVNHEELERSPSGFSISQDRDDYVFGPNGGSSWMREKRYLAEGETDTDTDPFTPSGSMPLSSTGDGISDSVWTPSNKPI
# assay.overview: Activation of KCNQ2/KCNQ3 expressed in CHO cells by isotopic efflux assay
Respond with the bare value in µM.

# count of solved cases: 4
>>> recorded_number("Cn1/c(=N/NC(=O)C23CC4CC(CC(C4)C2)C3)sc2c(C(F)(F)F)cccc21")
2.08
>>> recorded_number("Cn1/c(=N/NC(=O)c2cccc(F)c2)sc2cc(OC(F)(F)F)ccc21")
0.1
>>> recorded_number("Cn1/c(=N/NC(=O)C2CCCC2)sc2cc(OC(F)(F)F)ccc21")
0.062
>>> recorded_number("Cn1/c(=N/NC(=O)c2ccco2)sc2cc(OC(F)(F)F)ccc21")
0.5

QUERY: Quick one: EC50 of Cn1/c(=N/NC(=O)C23CC4CC(CC(C4)C2)C3)oc2ccccc21 ?
RESULT: 2.7

QUERY: I have this molecule here, Cn1/c(=N/NC(=O)OC(C)(C)C)sc2cc(OC(F)(F)F)ccc21 , and I need its recorded EC50.
RESULT: 0.023

QUERY: Which value of EC50 has been reported for Cn1/c(=N/NC(=O)C23CC4CC(CC(C4)C2)C3)sc2cccc(F)c21 in the records?
RESULT: 0.38

QUERY: Value lookup for EC50; key = CC(C)OC(=O)N/N=c1\sc2cc(OC(F)(F)F)ccc2n1C
RESULT: 0.095

----------
Reported pEC50 values for the following compounds.
# target.entity: Voltage-gated potassium channel, KQT; KCNQ2(Kv7.2)/KCNQ3(Kv7.3) (Homo sapiens, UniProt O43525+O43526)
# assay.overview: Activation of KCNQ2/KCNQ3 expressed in CHO cells by isotopic efflux assay
Remember, pEC50 is on a log scale: it is -log10 of the molar concentration.

Some entries whose results are on file:
>>> recorded_number("Cn1/c(=N/NC(=O)C23CC4CC(CC(C4)C2)C3)sc2ccc(C(F)(F)F)cc21")
7.28
>>> recorded_number("Cn1/c(=N/NC(=O)C2CCCO2)sc2cc(OC(F)(F)F)ccc21 (stereo unspecified)")
5.25
>>> recorded_number("Cn1/c(=N/NC(=O)C23CC4CC(CC(C4)C2)C3)sc2cc(F)ccc21")
7.55
>>> recorded_number("Cn1/c(=N/NC(=O)CC2CCCC2)sc2cc(OC(F)(F)F)ccc21")
7.36
>>> recorded_number("Cn1/c(=N/NC(=O)C23CC4CC(CC(C4)C2)C3)sc2cc(F)cc(F)c21")
6.80
>>> recorded_number("Cn1/c(=N/NC(=O)C23CC4CC(CC(C4)C2)C3)sc2cc(F)c(F)cc21")
7.68
>>> recorded_number("Cn1/c(=N/NC(=O)C23CC4CC(CC(C4)C2)C3)sc2c(F)cccc21")
7.01
>>> recorded_number("CCn1/c(=N/NC(=O)C23CC4CC(CC(C4)C2)C3)sc2ccccc21")
6.24
>>> recorded_number("Cn1/c(=N/NC(=O)C23CC4CC(CC(C4)C2)C3)sc2ccccc21")
7.57
>>> recorded_number("Cn1/c(=N/NC(=O)C(C)(C)C)sc2cc(OC(F)(F)F)ccc21")
6.15

QUERY: Which pEC50 is reported for this compound? Cn1/c(=N/NC(=O)CC(C)(C)C)sc2cc(OC(F)(F)F)ccc21
RESULT: 7.31

QUERY: Could you tell me which pEC50 is on file for Cn1/c(=N/NC(=O)C23CC4CC(CC(C4)C2)C3)sc2cc(OC(F)(F)F)ccc21 ?
RESULT: 7.60

QUERY: What does the record list as pEC50 for Cn1/c(=N/NC(=O)C2CCCCC2)sc2cc(OC(F)(F)F)ccc21 ?
RESULT: 7.55

QUERY: Param item = Cn1/c(=N/NC(=O)OC2CCCC2)sc2cc(OC(F)(F)F)ccc21 ; retrieve measured pEC50.
RESULT: 7.54

QUERY: Could you tell me which pEC50 is on file for Cn1/c(=N/NC(=O)c2ccc(F)cc2)sc2cc(OC(F)(F)F)ccc21 ?
RESULT: 7.36

QUERY: Param item = Cn1/c(=N/NC(=O)c2ccccc2)sc2cc(OC(F)(F)F)ccc21 ; retrieve measured pEC50.
RESULT: 6.59
